B1: TOR1AIP2 (parent)
chain: SPGHSSAGQEGEDTLRRRLLAPEA

Variants of: B1
procedure-details: protein stability index of a GFP-peptide fusion (GPS, HEK-293T) (PSI 1-6); higher = more stable;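 note: lentivirally expressed fusions sorted by FACS into six bins by GFP to DsRed ratio, PSI derived from sequencing read proportions per bin multiplied by bin number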
experimental-context: c terminus: a fixed tail appended
Label N if protein stability index falls below 5; label Y in every other case.

State whether the measured protein stability index reaches 5, counting equality as reaching it, for A21D
Y

State whether the measured protein stability index reaches 5, counting equality as reaching it, for S6E
N

State whether the measured protein stability index reaches 5, counting equality as reaching it, for P22W
N

State whether the measured protein stability index reaches 5, counting equality as reaching it, for A24N
N

State whether the measured protein stability index reaches 5, counting equality as reaching it, for R16G
Y

State whether the measured protein stability index reaches 5, counting equality as reaching it, for G11H
N

State whether the measured protein stability index reaches 5, counting equality as reaching it, for S6V
N

State whether the measured protein stability index reaches 5, counting equality as reaching it, for H4I
N

State whether the measured protein stability index reaches 5, counting equality as reaching it, for S1D
Y
